Below: a set of entries, each annotated with reported inhibition at 100 µM.
Biological target: A2a receptors (Rattus norvegicus)
Construct: Displacement of specific [^3 H]; from tissue; host or cells: rat striatal membranes
Test: radioligand binding, displacement of specific [3H]CGS 21680 binding in rat striatal membranes
Conditions: Table 11; 10^-4 M; read-out: % inhibition rA2A
Express the result in % but write the number alone.

Known inhibition at 100 µM results, listed for orientation:
| compound | inhibition at 100 µM [%] |
| --- | --- |
| CCOC(=O)C1=C(C)NC(C)=C(C(=O)OCc2ccccc2)C1/C=C/c1ccccc1 (centres unmarked) | 14.4 |
| CCOC(=O)c1c(C)nc(-c2ccccc2)c(C(=O)OCc2ccccc2)c1C#Cc1ccccc1 | 43 |
| CCOC(=O)C1=C(C)NC(c2ccc(Cl)cc2)=C(C(=O)OCC)C1/C=C/c1ccccc1 (centres unmarked) | 12 |
| CCOC(=O)C1=C(C)NC(c2ccc(C)cc2)=C(C(=O)OCC)C1/C=C/c1ccccc1 (centres unmarked) | 37 |
| CCOC(=O)C1=C(C)NC(c2ccccc2)=C(C(=O)OCc2ccccc2)C1/C=C/c1ccccc1 (centres unmarked) | 15 |
| CCOC(=O)C1=C(C)NC(c2ccccc2)=C(C(=O)OCC)C1/C=C/c1ccccc1OC (centres unmarked) | 17 |
| CCOC(=O)C1=C(c2ccccc2)NC(C)=C(C(=O)OCc2ccccc2)C1/C=C/c1ccccc1 (centres unmarked) | 16 |

With those in mind, consider the next compound.
Input: Which inhibition at 100 µM is listed for CCOC(=O)C1=C(C)NC(c2ccoc2)=C(C(=O)OCC)C1/C=C/c1ccccc1 (centres unmarked) ?
Output: 35

* * *

Target: A2a receptors (Rattus norvegicus, UniProt P30543)
Construct: Displacement of specific [^3 H]; from tissue; host or cells: rat striatal membranes
Sequence (P30543 whole entry): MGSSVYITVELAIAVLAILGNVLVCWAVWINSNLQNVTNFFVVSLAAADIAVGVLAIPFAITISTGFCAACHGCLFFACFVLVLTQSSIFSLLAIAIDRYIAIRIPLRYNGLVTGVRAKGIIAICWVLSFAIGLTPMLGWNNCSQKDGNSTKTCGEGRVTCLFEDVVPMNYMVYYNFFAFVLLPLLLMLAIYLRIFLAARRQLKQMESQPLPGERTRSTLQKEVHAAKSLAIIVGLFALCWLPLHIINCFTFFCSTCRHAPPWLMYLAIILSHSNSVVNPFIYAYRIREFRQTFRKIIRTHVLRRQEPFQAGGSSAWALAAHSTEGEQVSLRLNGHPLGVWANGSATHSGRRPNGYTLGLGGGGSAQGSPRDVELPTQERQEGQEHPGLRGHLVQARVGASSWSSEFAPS
Experiment: radioligand binding, displacement of specific [3H]CGS 21680 binding in rat striatal membranes
Details: Table 3; [3H]CGS 21680, rat striatal membranes; read-out: Ki rA2a
measured quantity: pKi
// returns pKi (minus log10 of molar concentration), number only

| compound | pKi |
| --- | --- |
| CCOc1cc(O)c2c(=O)c(OCC)c(-c3ccccc3)oc2c1 [Compound 3b, 3,7-Diethoxy-5-hydroxyflavone] | 4.20 |
| CCOc1cc(OCC)c2c(=O)c(OCC)c(-c3ccccc3)oc2c1 | 5.48 |
| O=c1c(O)c(-c2ccc(O)cc2O)oc2cc(O)cc(O)c12 [Compound 5a, 2',3,4',5,7-pentahydroxyflavone, reference compound] | 4.76 |
| CCOc1ccc(-c2oc3cc(OCC)cc(OCC)c3c(=O)c2OCC)c(OCC)c1 | 4.57 |
| COc1cc(OC)c2c(=O)c(OC)c(-c3ccccc3)oc2c1 | 5.19 |

Input: Which pKi is listed for O=c1c(O)c(-c2ccccc2)oc2cc(O)cc(O)c12 [Compound 1, galangin, reference compound] ?
Output: 6.02

Input: Similarly, O=c1cc(-c2ccccc2)oc2ccccc12 [Compound 11a, flavone, reference compound] ?
Output: 5.46

* * *

Below: a set of entries, each annotated with reported pKi.
Biological target: human A3 receptors (Homo sapiens)
Construct: expressed in transfected cells; host or cells: HEK-293 cells (membranes)
Sequence (P0DMS8 1-318): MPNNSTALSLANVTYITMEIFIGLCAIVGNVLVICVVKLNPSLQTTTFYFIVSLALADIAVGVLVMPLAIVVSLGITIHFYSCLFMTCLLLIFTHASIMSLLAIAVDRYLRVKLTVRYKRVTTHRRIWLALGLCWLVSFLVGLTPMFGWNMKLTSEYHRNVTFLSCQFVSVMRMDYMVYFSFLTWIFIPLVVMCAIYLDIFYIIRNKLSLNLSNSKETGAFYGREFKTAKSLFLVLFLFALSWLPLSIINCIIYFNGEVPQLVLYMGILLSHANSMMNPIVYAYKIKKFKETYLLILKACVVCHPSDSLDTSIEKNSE
Assay: radioligand binding, displacement of specific [125I]AB-MECA binding at human A3 receptors expressed in HEK-293 cells
Conditions: Table 6; [125I]AB-MECA, HEK-293 membranes; read-out: K2 (hA3)
// returns pKi (minus log10 of molar concentration), number only

| compound | pKi |
| --- | --- |
| COc1ccc(-c2cc(=O)c3c(OC)c(OC)c(OC)cc3o2)cc1 [Compound 31, reference compound] | 5.35 |
| COc1ccc(-c2cc(=O)c3c(O)cc(C)cc3o2)cc1 [Compound 29, reference compound] | 5.17 |
| CC(=O)Oc1cc(OC(C)=O)c2c(=O)c(OC(C)=O)c(-c3ccccc3)oc2c1 | 4.76 |

With those in mind, consider the next compound.
Input: Which pKi is listed for COc1cc(O)c2c(=O)c(O)c(-c3ccc(O)c(O)c3)oc2c1 [Compound 36, rhamnetin, reference compound] ?
Output: 5.86
